TARGET: Syk tyrosine kinase (Homo sapiens, UniProt P43405)
Structures can show the parent of a compound that is named as a salt.
OUTCOME MEASURE: IC50

Look up and report IC50, with Syk tyrosine kinase (Homo sapiens, UniProt P43405) as system, for N#Cc1ccnc(Nc2cc(C3CC3)cc(-c3cncc(OCCN4CCOCC4)c3)n2)c1 [Example 101, hydrochloride] 50 to 500 nM

Give IC50 only, for N#Cc1ccnc(Nc2cc(C3CC3)cc(-c3ccc4c(c3)ncn4[C@H]3CC[C@H](O)CC3)n2)c1 [Example 14, hydrochloride] , using Syk tyrosine kinase (Homo sapiens, UniProt P43405) data. 5 to 50 nM

// fetch IC50 for N#Cc1ccnc(Nc2cc(C3CC3)cc(-c3ccc4ncn(C5CCC(F)(F)CC5)c4c3)n2)c1 [Example 136, hydrochloride] ; system: Syk tyrosine kinase (Homo sapiens, UniProt P43405) 50 to 500 nM

Recall the reported IC50 of N#Cc1ccnc(Nc2cc(C3CC3)cc(-c3ccc4ncn(Cc5cccnc5)c4c3)n2)c1 [Example 130, hydrochloride] when tested on Syk tyrosine kinase (Homo sapiens, UniProt P43405). 50 to 500 nM

Provide the reported IC50 (system: Syk tyrosine kinase (Homo sapiens, UniProt P43405)) for N#Cc1ccnc(Nc2cc(C3CC3)cc(-c3cncc(OC4CCN(C(N)=O)CC4)c3)n2)c1 [Example 104, hydrochloride] 5 to 50 nM

Give IC50 only, for N#Cc1ccnc(Nc2cc(C3CC3)cc(-c3ccc(N4CC[C@H](O)C4)nc3)n2)c1 [Example 25, hydrochloride] , using Syk tyrosine kinase (Homo sapiens, UniProt P43405) data. 5 to 50 nM

Return reported IC50 for target or system Syk tyrosine kinase (Homo sapiens, UniProt P43405), item CC(C)(O)Cn1cnc2cc(-c3cc(C4CC4)cc(Nc4cc(C#N)ccn4)n3)ccc21 [Example 118, hydrochloride] . 50 to 500 nM

Write IC50 of N#Cc1ccnc(Nc2cc(C3CC3)cc(-c3cnc(N4CCC(O)CC4)nc3)n2)c1 [Example 35, hydrochloride] ; system used: Syk tyrosine kinase (Homo sapiens, UniProt P43405) 50 to 500 nM

Tell me its IC50 on Syk tyrosine kinase (Homo sapiens, UniProt P43405): N#Cc1ccnc(Nc2cc(C3CC3)cc(-c3ccc(N4CCC[C@H]4C(N)=O)nc3)n2)c1 [Example 40, hydrochloride] 50 to 500 nM

Report the value of IC50 obtained on Syk tyrosine kinase (Homo sapiens, UniProt P43405) for N#Cc1ccnc(Nc2cc(C3CC3)cc(-c3ccc(NC4CCN(C(N)=O)CC4)nc3)n2)c1 [Example 65, hydrochloride] . 5 to 50 nM

# lookup: Syk tyrosine kinase (Homo sapiens, UniProt P43405) IC50, key = N#Cc1ccnc(Nc2cc(C3CC3)cc(-c3ccc(N4CCS(=O)(=O)CC4)nc3)n2)c1 [Example 3, hydrochloride] < 5 nM

# return IC50 of N#Cc1ccnc(Nc2cc(C3CC3)cc(-c3ccc(N4C[C@H](O)CC4=O)nc3)n2)c1 [Example 8, hydrochloride] (system: Syk tyrosine kinase (Homo sapiens, UniProt P43405)) 50 to 500 nM

Fill in IC50 for CC(=O)N[C@H]1CCN(c2ccc(-c3cc(C4CC4)cc(Nc4cc(C#N)ccn4)n3)cn2)C1 [Example 42, hydrochloride] tested with Syk tyrosine kinase (Homo sapiens, UniProt P43405). 50 to 500 nM

Look up and report IC50, with Syk tyrosine kinase (Homo sapiens, UniProt P43405) as system, for N#Cc1ccnc(Nc2cc(C3CC3)cc(-c3ccc(N4CC[C@@H](NC(N)=O)C4)nc3)n2)c1 [Example 45, hydrochloride] 50 to 500 nM

State, for Syk tyrosine kinase (Homo sapiens, UniProt P43405), measured IC50 of the molecule listed here: N#Cc1ccnc(Nc2cc(C3CC3)cc(-c3cncc(N4CCC(O)C4)c3)n2)c1 (stereo not drawn) [Example 111, hydrochloride] 5 to 50 nM

GET IC50 | system: Syk tyrosine kinase (Homo sapiens, UniProt P43405) | item: N#Cc1ccnc(Nc2cc(C3CC3)cc(-c3ccc4ncn(C5(CO)CCCCC5)c4c3)n2)c1 [Example 135, hydrochloride] 5 to 50 nM

Please report IC50 with Syk tyrosine kinase (Homo sapiens, UniProt P43405) for item N#Cc1ccnc(Nc2cc(C3CC3)cc(-c3ccc(N4CCC(O)CC4)nc3)n2)c1 [Example 20, hydrochloride] . 5 to 50 nM

State recorded IC50 with Syk tyrosine kinase (Homo sapiens, UniProt P43405), entry N#Cc1ccnc(Nc2cc(C3CC3)cc(-c3ccc4c(c3)ncn4C(CO)CO)n2)c1 [Example 117, hydrochloride] , no comment. 5 to 50 nM

Fill: IC50 (Syk tyrosine kinase (Homo sapiens, UniProt P43405)) for this molecule N#Cc1ccnc(Nc2cc(C3CC3)cc(-c3ccc(CN4CCNC(=O)C4)cc3)n2)c1 [Example 80, hydrochloride] 50 to 500 nM

Answer briefly: IC50 recorded on Syk tyrosine kinase (Homo sapiens, UniProt P43405) for N#Cc1ccnc(Nc2cc(C3CC3)cc(-c3ccc4ccnc(N5CCNC(=O)C5)c4c3)n2)c1 [Example 158, hydrochloride] < 5 nM

Give IC50; test system Syk tyrosine kinase (Homo sapiens, UniProt P43405); molecule CCOC(=O)CCn1cnc2cc(-c3cc(C4CC4)cc(Nc4cc(C#N)ccn4)n3)ccc21 [Example 123, hydrochloride] 50 to 500 nM

Find the measured IC50 of N#Cc1ccnc(Nc2cc(C3CC3)cc(-c3ccc4ccnc(N5CCC[C@H]5CO)c4c3)n2)c1 [Example 167, hydrochloride] with Syk tyrosine kinase (Homo sapiens, UniProt P43405) as test system. 5 to 50 nM

Provide the reported IC50 (system: Syk tyrosine kinase (Homo sapiens, UniProt P43405)) for N#Cc1ccnc(Nc2cc(C3CC3)cc(-c3ccc4c(c3)ncn4CCN)n2)c1 [Example 13, hydrochloride] 5 to 50 nM

Name the recorded IC50 of N#Cc1ccnc(Nc2cc(C3CC3)cc(-c3cncc(OCCN4CCNCC4)c3)n2)c1 [Example 100, hydrochloride] , assay system Syk tyrosine kinase (Homo sapiens, UniProt P43405). 5 to 50 nM
